# Test system: DU-145 prostate
# method.description: NCI tumour cell line growth inhibition, 48 h
reported.metric: TGI

1. CCCCC1Nc2ccccc2-c2ccnc(Cl)c21 (stereo not drawn); 50.3 µM
2. N[C@@H](Cc1c[nH]c2ccccc12)C(=O)NC1CCN(Cc2c[nH]c3ccc(Cl)cc23)CC1; 21.2 µM
3. O=C(Nc1ccc(Cl)cc1)c1cc(NCc2cc(O)ccc2O)ccc1O; 26.9 µM
4. Oc1c(CN2CCCCC2)ccc2cccnc12; 36.4 µM
5. CCC(CO)Nc1nc(NCc2ccccc2)c2n[nH]c(C(C)C)c2n1 (stereo not drawn); 16.6 µM
6. Brc1ccc2nc(-c3cccs3)nc(N3CCN(c4ccccc4)CC3)c2c1; > 100 µM
7. COc1ccc(Cc2ccc3[nH]c(=O)cc(C)c3c2)cc1S(=O)(=O)O; > 100 µM
8. [Mn+3].[O-][Cl+3]([O-])([O-])O.[O-]c1ccccc1C=NCCN1CC1.[O-]c1ccccc1C=NCCN1CC1; > 100 µM
9. Cc1cn(CC2(CO)CCC2)c(=O)[nH]c1=O; > 100 µM
10. C1=C2C3=[N+](CCCC3)CC2Cc2sccc21 (stereo not drawn); > 100 µM
11. Oc1ccc(Br)cc1C=NC1CCCCC1; > 100 µM
12. Cc1cc(C)c([I+]c2c(C)cc(C)cc2C)c(C)c1; 2.02 µM
13. C=C(C)[C@@]12C[C@H](OC(=O)[C@H](O)[C@@H](NC(=O)c3ccccc3)c3ccccc3)C(C)=C1[C@@H](OC(C)=O)C(=O)[C@@]1(C)C([C@@H]2OC(=O)c2cc(F)cc(F)c2)C2(OC(C)=O)CO[C@@H]2C[C@@H]1O (stereo partly drawn); > 5.16 µM
14. C=C[C@@H]1CCC/C=C/[C@@H]2C[C@H](O)C[C@H]2[C@H](O)/C=C/C(=O)O1; > 100 µM
15. O=C(O)CN1CCN2CCCCCCCCN(CC1)CCN(CC(=O)O)CC2; > 100 µM
16. COc1cc(/C=C2\C[C@H]3[C@@H]4CC=C5C[C@@H](O)CC[C@]5(C)[C@H]4CC[C@]3(C)[C@H]2O)ccc1OCCN1CCCCC1; 4.58 µM
17. CC1(C)CC[C@]2(C)[C@@H](O)C[C@]3(C)C(=CC[C@@H]4[C@@]5(C)CC[C@H](O)C(C)(C)[C@@H]5CC[C@]43C)[C@@H]2C1; > 100 µM
18. Cc1cc2[nH]c(=O)c3c4ncccc4cn3c2cc1C; > 100 µM
19. O=C1NN(C(=O)c2ccccc2)C(c2ccc(Cl)c(Cl)c2)=C/C1=C\c1ccccc1[N+](=O)[O-]; > 6.75 µM
20. Oc1cccc2ccc(SSc3ccc4cccc(O)c4n3)nc12; > 100 µM
21. CO[C@H]1/C=C/O[C@@]2(C)Oc3c(C)c(O)c4c(O)c(c(/C=N/N5C(C)CN(Cc6ccc(C#N)cc6)CC5C)c(O)c4c3C2=O)NC(=O)/C(C)=C\C=C\[C@H](C)[C@H](O)[C@@H](C)[C@@H](O)[C@@H](C)[C@H](OC(C)=O)[C@@H]1C (stereo partly drawn); 15.3 µM
22. O=C1C2CCCC2N1Cc1ccccc1 (stereo not drawn); > 100 µM
23. COC(=O)[C@@H](C)C[C@H](Cc1ccc(F)cc1)NC(=O)c1csc([C@@H](C[C@H](C(C)C)N(C)C(=O)[C@@H](NC(=O)[C@H]2CCCCN2C)C2CC2)OC(C)=O)n1; > 9.05 µM
24. CC(C)(C)n1[nH]c(=O)n(C(C)(C)C)c1=O; > 100 µM
25. COc1ccc2nc(N/N=C/c3ccc(C)s3)cc(C)c2c1; 34.7 µM
26. CC(C)CC(C#CCCOC(=O)c1ccccc1)OC(=O)c1ccccc1 (stereo not drawn); > 10 µM
27. COc1ccc(-c2oc3ncnc(N)c3c2-c2ccc(NC(=O)Nc3cc(C(F)(F)F)ccc3F)cc2)cc1; 4.16 µM
28. Nc1ccc2nc3n(c2c1)C(c1c(F)cccc1F)SC3 (stereo not drawn); > 100 µM
29. CCSC1=N/C(=C\c2ccco2)C(Nc2ccc(C)cc2)=N1; > 100 µM
30. COc1cc(OCCCN2CCCC2)ccc1Nc1ncc(Cl)c(Nc2ccccc2P(C)(C)=O)n1; 36.4 µM
31. CCCC(=O)Oc1c2ccsc2c(OC(=O)CCC)c2ccsc12; 1.47 µM
32. Cc1cn(C(CO)OC(CO)CN(O)C2C3CC4CC(C3)CC2C4)c(=O)[nH]c1=O (stereo not drawn); > 100 µM
33. COc1cc(/C=C/C(=O)c2ccccc2O)ccc1OCCCOc1cc2c(cc1OC)C(=O)N1CCC[C@H]1C=N2; 0.452 µM
34. Cc1ccc(F)c2[nH]c(-c3ccccc3)cc(=O)c12; > 100 µM
35. COc1ccc(OC)c(-c2cc(-c3ccc(Cl)cc3)nn2-c2ccccc2)c1; > 100 µM
36. COc1ccccc1N1C(=O)CSC1c1cccc(Oc2ccccc2)c1 (stereo not drawn); 38.7 µM
37. CC(=O)OC(OC(C)=O)c1c2ccccc2cc2ccccc12; > 100 µM
38. COc1ccc(/C(=N/OCCCC(=O)O)c2cccs2)cc1; > 100 µM
